Cited source for all entries: PubChem BioAssay (NCI)

Test system: SR leukemia
assay-comment: NCI tumour cell line growth inhibition, 48 h
For each of the molecules below, state its TGI.

[
  {
    "molecule": "CC(C)=C[C@H]1C[C@H](C)[C@H]2CC[C@H](C)c3c2c1c(C)c1ncoc31",
    "target": "SR leukemia",
    "result": "40.9 µM"
  }
]

Required: TGI, one value per molecule below.
1. C=C1c2nc3ccccc3n2C=C(c2ccc(OC)cc2)N1c1ccc(OC)cc1
2. O=c1[nH]c(=O)c2c3n(cc2[nH]1)CCCCC3

output:
> 100 µM
> 100 µM

----------
System: DU-145 prostate
assay-comment: NCI tumour cell line growth inhibition, 48 h
Field: TGI. Provide a value for each of the molecules that follow.

Below: 3 molecules and their reported TGI.
[
  {
    "molecule": "COc1cc2c(/C=C3/C(=O)Nc4cccc(Cl)c43)c(Cl)[nH]c2cc1C",
    "result": "5.66 µM"
  },
  {
    "molecule": "CCOC(=O)c1cn2c(n1)sc1cc(F)ccc12",
    "result": "> 100 µM"
  },
  {
    "molecule": "CCOC(=O)C12OC(OCC)(CC1(OCC)OCC)C1(CC1)C2=O (stereo unspecified)",
    "result": "> 100 µM"
  }
]

Could you tell me TGI for each of these molecules? They are listed below.
1. CCN(CC)CCCNC(=O)c1cc(-c2nccn2C)nc2ccccc12
2. O=C1/C(=C/c2ccco2)NC(=S)N1CN1CCCCC1
3. O=[N+]([O-])c1cc([N+](=O)[O-])c(C(F)(F)F)cc1NN=C(c1ccc(O)cc1)c1ccc(O)cc1
4. NC(Cc1ccccc1)C(=O)NC(Cc1ccccc1)NC(=O)C(Cc1c[nH]c2ccccc12)C(=O)O (stereo unspecified)
5. Oc1ccc(NCn2c(=S)sc3ccccc32)cc1
6. COC(=O)c1ccc(Cc2cc(Cc3ccc(C(=O)OC)cc3)cc(Cc3ccc(C(=O)OC)cc3)c2)cc1

output:
["> 100 µM", "> 100 µM", "13.8 µM", "> 100 µM", "> 100 µM", "> 25 µM"]

Go through the list and state TGI for each entry.
1. O=C1C(Br)=C(Br)C(=O)c2ccc(=O)ccc21
2. O=C(O)C(Cl)Cl

output:
1: > 100 µM; 2: > 10000 µM
